assayProcedure: chemical genetic growth profiling, strain panel (AID 1159580);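 also: tested at 20 µM; growth read once vehicle control cultures reached saturation at 30 °C; 1 = growth at the plate median or of vehicle wells; lower values mean less growth of the strain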
experimentalConditions: S. cerevisiae deletion strains, growth OD, locus YMR205C, strain PFK2
About 2,000 (36%) of roughly 5,500 compounds were called active. Another 18% or so got no clear call; they are omitted. Rule as the data show it: active = normalized growth mostly below about 0.91 (no sharp cut-off); inconclusive = no clear call, values can overlap the other calls; inactive = mostly above about 0.92. This is one part of the list.
Classes to choose from: Yes for active, No for inactive

Field: example entries. Status: answers known.
- compound: "C[C@@H]1CC[C@@]2(OC1)O[C@H]1CC3C4CC[C@H]5C[C@@H](O)CC[C@]5(C)C4CC[C@]3(C)[C@H]1[C@@H]2C (stereo partly drawn)"
  discreteLabel: "No"
- compound: "NC(=O)c1ncn([C@@H]2O[C@H](CO)[C@@H](O)[C@H]2O)n1"
  discreteLabel: "No"

Switching to the query record.
Check the results log: what was the call for C[C@@H]1CC[C@@]2(NC1)O[C@H]1C[C@H]3C4CC=C5C[C@@H](O)CC[C@]5(C)C4CC[C@]3(C)C1[C@@H]2C (stereo partly drawn) ?
Yes

----------
// reported normalized growth per item
assayProcedure: chemical genetic growth profiling, strain panel (AID 1159580);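 also: tested at 20 µM; growth read once vehicle control cultures reached saturation at 30 °C; 1 = growth at the plate median or of vehicle wells; lower values mean less growth of the strain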
experimentalConditions: S. cerevisiae deletion strains, growth OD, locus YJR066W, strain TOR1, active compounds read low
Among all 5,500 compounds or so, about 2,000 (36%) were called active. Another 18% or so got no clear call; they are omitted. This is one part of the list.
Please give only the number in your answer, with no unit.

# count of solved cases: 3
- compound: "O=c1ccc2c(O)c3ccoc3cc2o1"
  normalized growth: 0.935
- compound: "O/N=C(/c1ccc(Cl)cc1)c1cc2ccccc2o1"
  normalized growth: 0.797
- compound: "Cc1cc(C2CCCCC2)n(O)c(=O)c1"
  normalized growth: 0.00216

Kindly note the recorded normalized growth for CC(=O)OC(C)C[N+](C)(C)C (centres undefined) , which is 0.985

Entry CC(=O)Oc1ccc2c(c1OC(C)=O)OCC1(O)Cc3c(cc(OC(C)=O)c(OC(C)=O)c3OC(C)=O)C21 (centres undefined) ; normalized growth = 1.04

The value of normalized growth measured for the compound `CN(C)C=Nc1nnc(Sc2nc3c(Cl)cc(Cl)cc3s2)s1` turned out to be 1.01

Lab note: Cc1c(C)c(C)c(C(O)c2ccccc2)c(C)c1C (centres undefined) gave normalized growth of 0.817

Reported normalized growth for CN1C[C@H](C(=O)N[C@]2(C)C[C@@]3(O)C4CCCN4C(=O)[C@H](Cc4ccccc4)N3C2=O)C=C2c3cccc4[nH]cc(c34)C[C@H]21 (some centres undefined) was 0.945

normalized growth reported for this compound `CCC(=O)O[C@H](CC(=O)O)C[N+](C)(C)C` : 0.967

Documented normalized growth of CCN(Cc1ccncc1)C(=O)C(CO)c1ccccc1 (centres undefined) : 0.95

Noted for `COC(=O)c1c(C)cc(O)cc1O` : its normalized growth reads 0.948

----------
assayProcedure: chemical genetic growth profiling, strain panel (AID 1159580);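 also: tested at 20 µM; growth read once vehicle control cultures reached saturation at 30 °C; 1 = growth at the plate median or of vehicle wells; lower values mean less growth of the strain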
experimentalConditions: S. cerevisiae deletion strains, growth OD, locus YHR013C, strain ard1, active compounds read low
The campaign covered roughly 5,500 compounds. About 2,000 (36%) were called active. Inconclusive results (about 18%) are left out. This is one part of the list.
propertyName: normalized growth
Output: the number by itself.

- compound: "O=C1[O][Bi][O]c2ccccc21"
  normalized growth: 1.02
- compound: "CN[C@@H]1C(O)[C@@H](O[C@@H]2[C@@H](O)[C@H](O[C@H]3OC(CN)=CC[C@H]3N)[C@@H](N)C[C@H]2N)OC[C@]1(C)O (some centres undefined)"
  normalized growth: 1.01
- compound: "Oc1cc2c(cc1O)C1c3ccc(O)c(O)c3OCC1(O)C2 (centres undefined)"
  normalized growth: 0.987
- compound: "CC(C)(C)NCC(O)c1cc(Cl)c(N)c(Cl)c1 (centres undefined)"
  normalized growth: 0.983
- compound: "CC(=O)O[C@@H]1CC2C(C)(C)C(=O)C=C[C@]2(C)C2CC[C@@]3(C)[C@H](c4ccoc4)OC(=O)[C@H]4O[C@]43[C@@]21C (some centres undefined)"
  normalized growth: 0.987

Item: `NC(=O)c1ncn([C@@H]2O[C@H](CO)[C@@H](O)[C@H]2O)n1` | normalized growth: 0.953

For CC1(C)C(=O)C=C[C@@]2(C)C1C[C@@H](O)[C@]1(C)C2CC[C@@]2(C)[C@H](c3ccoc3)OC(=O)[C@H]3O[C@]321 (some centres undefined) the compound record lists normalized growth as 1.01

Value of normalized growth reported for the compound CC(=O)Oc1ccc2c(c1OC(C)=O)OCC1(O)Cc3c(cc(OC(C)=O)c(OC(C)=O)c3OC(C)=O)C21 (centres undefined) is 0.981

// normalized growth lookup, compound = CC1(C)C=CC(=O)[C@@]2(C)C1CC(=O)[C@]1(C)C2CC[C@@]2(C)[C@H](c3ccoc3)OC(=O)C3OC321 (some centres undefined) , result: 0.968

Taken from PubChem BioAssay AID1159580.
